Items are presented alongside their recorded pIC50.
Method description: Metal chelating activity assessed as inhibition of Fe2+-ferrozine complex formation after 10 mins
Type: physicochemical
pIC50: −log10 of the molar value.
Measured endpoint: pIC50

>>> print(df.to_string())
                                   compound  measured_endpoint  censoring_operator  observed_value
0  Nc1ncnc2c1ncn2[C@@H]1O[C@H](COP(=O)(O)OP(=O)(O)S)[C@@H](O)[C@H]1O (stereo not given in full)              pIC50                   =            4.07
1  O=C(O)CN(CCN(CC(=O)O)CC(=O)O)CCN(CC(=O)O)CC(=O)O [PENTETIC ACID]              pIC50                   =            4.05
2  O=C(O)CC(O)(CC(=O)O)C(=O)O [CITRIC ACID]              pIC50                   =            3.52
3  Nc1ncnc2c1ncn2[C@@H]1O[C@H](COP(=O)(O)OP(=O)(O)O)[C@@H](O)[C@H]1O [ADENOSINE DIPHOSPHATE]              pIC50                   <            3.70
4  Cc1c(C)c2c(c(C)c1O)CCC(C)(C(=O)O)O2 (stereo not given) [TROLOX]              pIC50                   =            3.82
